// provenance: patent US20190367619A1

- tested.on: T1, human galectin-10 as coated in ELISA (soluble galectin-10; tag not given) (human, UniProt Q05315 1-142, limits assumed)
- T1 construct: also called coated galectin-10; Gal10
- T1 sequence: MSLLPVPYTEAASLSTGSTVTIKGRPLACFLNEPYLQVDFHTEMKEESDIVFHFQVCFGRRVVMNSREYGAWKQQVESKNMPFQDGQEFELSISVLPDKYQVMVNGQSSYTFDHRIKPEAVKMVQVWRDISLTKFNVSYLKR
- assay.method.text: ELISA, scFv periplasmic extract on coated soluble galectin-10, anti-Myc-HRP
- Protocol: In order to test the binding capacity of the scFvs to galectin-10, an ELISA binding assay was established. Briefly, a Maxisorp plate was coated with soluble galectin-10 (1 μg/mL), then blocked with casein, before being incubated with the periplasmic extract (dilution 1/5 in PBS) containing the scFv-Myc. Detection of the binder was carried out with an anti-Myc-HRP antibody. Absorbance was measured at 450 nm (reference at 620 nm) with Tecan instrument. […]
PERI-ELISA binding (OD values): recorded values
Write the number in OD without appending the unit.

Could you tell me which PERI-ELISA binding (OD values) is on file for scFv 4B10 (periplasmic extract, Myc-tagged) (scFv, not shown: small tags and cut ends) scFv: QLQLVESGGGLVQPGGSLRLSCAASGFTFSNYWMYWVRQAPGKGLEWVSAIDVGGGTTDYAGSVKGRFTISRDNTKSTVYLQMNTLKPEDTALYYCLRGGSYYGGMDYWGKGTLVTVSSGGGGSGGGGSGGGGSQSALTQPSAVSVSLGQTARITCQGAKLGRYYGIWYQQKPGQAPVQVIYGDSNRPSGIPERFSGSSSGGTATLTISGAQAEDEADYYCQSYESSTSPVFGGGTHLTVL ?
2.44

Please examine the following record next.
Could you tell me which PERI-ELISA binding (OD values) is on file for scFv 6A11 (periplasmic extract, Myc-tagged) (scFv, not shown: small tags and cut ends) scFv: ELQLVESGGGLVQPGGSLRLSCSASGFTFGAYAMNWVRQAPGKGLEWVSGVNSGGGLTSYGESVKGRFTISRDNAKNTLYLQMNRLNPDDTAVYYCAKSKRGAVVAGTGDDYWGQGTQVTVSSGGGGSGGGGSGGGGSSSALTQPSAVSVSLGQTARITCQGGNFGRYYVSWYQQKPGQAPVLVIYKDSERPSGIPERFSGSSSGDTATLTISGAQAEDEADYYCQSGSSSDNAVFGGGTHLTVL ?
2.35
